# assayNotes: forskolin-driven CRE-LacZ activity in PC12 – cell-based, CRE-LacZ reporter, forskolin-stimulated, primary screen (AID 1146);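 further: PC12 cells with 6xCRE LacZ reporter stimulated by forskolin 10 µM; beta-galactosidase reporter signal reflecting CREB driven transcription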
# reportedConditions: luminescence, 4.5 h, higher = more signal, called active from +8 up or from −8 down

compound: COCCOC(=O)N1C(=O)[C@@]2(c3cc(C#CCC(C(=O)OC)C(=O)OC)ccc31)[C@H](C(=O)Nc1nc3ccccc3s1)[C@H]1C(=O)O[C@H](c3ccccc3)[C@H](c3ccccc3)N1[C@@H]2c1ccc(OCCO)cc1
z-score: 0.323
--
compound: C=CC[C@]1(C(=O)NCC(O)CO)COC(c2ccc(OCCCO)cc2)=N1 (stereo partly drawn)
z-score: -0.282
--
compound: C=C(C)[C@@H]1CC=C(C(O)C2C=CC3C(=O)N(C)C(=O)C3N2Nc2ccc([N+](=O)[O-])cc2[N+](=O)[O-])CC1 (stereo partly drawn)
z-score: 0.386

----------
# assayNotes: resazurin metabolic signal in A549 cells – cell-based, resazurin fluorescence, 24 h, PK04 Diversity Set, profiling panel (AID 1171); further: test concentration not given here
# reportedConditions: A549 viability, higher = more signal, called active from +8 up or from −8 down
Field 'label' (enum: Satisfied / Not satisfied). Set to Satisfied when z-score is strictly under 0.4; else Not satisfied.

mol: CC(C)C(=C=CC[C@H](O)c1ccccc1OCCO)C[C@H](O)COCc1ccccc1
assignedCategory: Satisfied

mol: COc1ccc([Si](C)(C)[C@@H]2[C@@H](CC(=O)N3Cc4ccccc4C[C@H]3CO)O[C@]3(C(=O)N(Cc4cccc(N5CCOC5=O)c4)c4ccccc43)[C@H]2C)cc1
assignedCategory: Satisfied

mol: CC(C)N1C(=O)C[C@@](C(=O)NCCN2CCOCC2)(c2ccc([N+](=O)[O-])cc2)[C@H]1c1ccc(CO)cc1
assignedCategory: Not satisfied

mol: O=C(NC1CC1)[C@@H]1c2ccccc2C(=O)N(Cc2cc(C(F)(F)F)cc(C(F)(F)F)c2)[C@H]1c1ccc(CO)cc1
assignedCategory: Satisfied

mol: COCCCNC(=O)[C@@]1(CCS(=O)(=O)c2ccccc2)COC(c2ccc(OCCCO)cc2)=N1
assignedCategory: Satisfied

mol: C=C(CCCC)C(=O)CC[C@H](OC(=O)c1ccccc1-c1ccccc1C(=O)O)c1ccc(OCCO)cc1
assignedCategory: Not satisfied

mol: C=CCNC(=O)[C@H]1[C@@H]2C(=O)O[C@@H](c3ccccc3)[C@@H](c3ccccc3)N2[C@@H](c2ccc(OCCO)cc2)[C@]12C(=O)Nc1ccccc12
assignedCategory: Not satisfied

----------
# assayNotes: hepatitis C replication reporter changes, two-sided – Huh7 cells, luciferase reporter, HCV replication inhibitor project, primary screen (AID 1109);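 further: huh7 hepatoma cells harbouring a luciferase neomycin HCV replicon reporter; luciferase luminescence as measure of HCV replicon replication; test concentration not given here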
# reportedConditions: Huh7 HCV replicon luciferase reporter, 48 h; higher = more signal
Tag: Satisfied if measured z-score is not below -2, Not satisfied if it is.

compound: COC(=O)C1=CC(CCCO)=CC(c2cccs2)N(Cc2cc3c(cc2Br)OCO3)C=C1C(=O)OC (centres undefined)
assignedCategory: Satisfied
//
compound: O=C1O[C@@H](c2ccccc2)[C@@H](c2ccccc2)N2[C@@H](c3ccccc3OCCO)[C@]3(C(=O)Nc4ccc(C#CCCO)cc43)[C@@H](C(=O)NC[C@H](O)c3ccccc3)[C@H]12
assignedCategory: Satisfied
//
compound: O=C1NC(=O)C2C1C=CC(C(O)c1ccc(B(O)O)cc1)N2Nc1ccc(Cl)cc1Cl (centres undefined)
assignedCategory: Satisfied
//
compound: C=CCC(OC(C)=O)[C@@H]1[C@@H](N(Cc2ccc(-c3cccc(C(F)(F)F)c3)o2)C(=O)c2ccc(-c3ccccc3)cc2)c2cc(OCCCO)ccc2N1C(=O)c1ccc2ccccc2c1 (some centres undefined)
assignedCategory: Satisfied
//
compound: C=CC[C@@]12N=C(c3ccc(OCCCO)cc3)O[C@@H]1c1ccccc1N(CCC)C2=O
assignedCategory: Not satisfied
//
compound: COc1ccc([Si](C)(C)[C@@H]2[C@@H](CC(=O)N3CCC[C@H]3CO)O[C@]3(C(=O)N(Cc4ccc(N5CCOC5=O)cc4)c4ccccc43)[C@H]2C)cc1
assignedCategory: Satisfied
//
compound: COC(=O)[C@@]1(Cc2ccccc2)[C@H]2c3cc(C(=O)N(C)C)n(Cc4ccc(S(C)(=O)=O)cc4)c3C[C@H]2CN1C(=O)c1ccccc1
assignedCategory: Satisfied
//
compound: COc1ccc(C(O)C2C=CC3C(=O)NC(=O)C3N2Nc2ccc(Cl)cc2Cl)c2ccccc12 (centres undefined)
assignedCategory: Satisfied
//
compound: C=C(CCCC)C(=O)CC[C@@H](OC(=O)c1ccccc1-c1ccccc1C(=O)O)c1ccccc1OCCO
assignedCategory: Not satisfied
//
compound: C=CC[C@@]1(C(=O)N(C)C)N=C(c2ccc(OCCCO)cc2)O[C@@H]1c1ccccc1CN=[N+]=[N-]
assignedCategory: Not satisfied
//
compound: CN(C)CCCNC(=O)[C@@]1(C)c2ccccc2C(=O)N(Cc2ccc(OC(F)(F)F)cc2)[C@H]1c1ccc(CO)cc1
assignedCategory: Not satisfied
//
compound: C[N+](C)(C)CCCC[C@@H]1NC(=O)[C@@H]2C[C@H](C(=O)NCc3ccc(F)cc3)[C@H](c3ccc(O)cc3)N2C1=O
assignedCategory: Satisfied
//
compound: [N-]=[N+]=Nc1ccccc1[C@H]1OC(c2ccc(OCCCO)cc2)=N[C@@]1(Cc1ccccc1)C(=O)NCC(O)CO (some centres undefined)
assignedCategory: Satisfied
